biological target: METTL15^70–407 N212A (human, UniProt A6NJ78 70-407, N212A); test: ITC; Microcal PEAQ-ITC, 20 °C, buffer B (50 mM Na2HPO4, 150 mM NaCl, pH 7.0); hsRBFA 600 μM and METTL15 40 μM; single binding site model; conditions: both partners purified
Readout kind: pKd
Formally, pKd is defined as -log10 of the concentration c, with c in mol/L.

For reference, reported pKd for GTTEPTTSSSLCGIDHEALNKQIMEYKRRKDKGLG (domain or fragment, UniProt Q8N0V3 226-260, looked up) [hsRBFA^226–260 (human hsRBFA, residues 226–260), wild type] stands at 5.95

These data points were gathered from paper PMC10828496.
